Kindly supply the reported IC50 values for the records listed here.
Form entry: value (nM) — number only.

Please look at "Cc1nc(-c2cccc(Cl)n2)nc(NC[C@H](NC(=O)CCCN2CCNCC2)c2ccccc2)c1Cl" and tell me its recorded IC50 on Methionine aminopeptidase 1 (Homo sapiens, UniProt P53582). 7200

Please look at "Cc1nc(-c2ccc(F)cn2)nc(NC[C@H](NC(=O)CCCN2CCNCC2)c2ccccc2)c1Cl" and tell me its recorded IC50 on Methionine aminopeptidase 1 (Homo sapiens, UniProt P53582). 49

Please look at "Cc1nc(-c2ccc(Cl)cn2)nc(NC[C@H](NCCCCc2ccc3ccccc3n2)c2ccccc2)c1Cl" and tell me its recorded IC50 on Methionine aminopeptidase 1 (Homo sapiens, UniProt P53582). 690

Please look at "Cc1nc(-c2ncccc2Cl)nc(NC[C@H](NC(=O)CCCN2CCNCC2)c2ccccc2)c1Cl" and tell me its recorded IC50 on Methionine aminopeptidase 1 (Homo sapiens, UniProt P53582). 7600

Please look at "CCCOc1ccc(CCCCN[C@@H](CNc2nc(-c3ccc(Cl)cn3)nc(C)c2Cl)c2ccccc2)cc1" and tell me its recorded IC50 on Methionine aminopeptidase 1 (Homo sapiens, UniProt P53582). 1200

* * *

# Organism: Homo sapiens
# TEST NAME: Selectivity ratio of EC50 for human recombinant GST-6XHis-tagged full-length cytosolic METAP2 to EC50 for human recombinant full-length cytosolic METAP1
Kindly supply the reported Ratio EC50 values for the records listed here.

Specify Ratio EC50 for "Cc1nc(-c2ccc(Cl)cn2)nc(NC[C@H](NC(=O)CCCCc2ccccc2)c2ccccc2)c1Cl" and stop. > 23

Specify Ratio EC50 for "Cc1nc(-c2ccc(Cl)cn2)nc(NC[C@H](NCCCc2ccccc2)c2ccccc2)c1Cl" and stop. > 1150

Specify Ratio EC50 for "Cc1nc(-c2ccc(Cl)cn2)nc(NC[C@H](NC(=O)CCc2ccccc2)c2ccccc2)c1Cl" and stop. > 323

Specify Ratio EC50 for "Cc1nc(-c2ccc(Cl)cn2)nc(NC[C@H](NCCCCc2ccc3ccccc3n2)c2ccccc2)c1Cl" and stop. > 435

Specify Ratio EC50 for "Cc1nc(-c2ccc(Cl)cn2)nc(NC[C@H](NCCCCc2cccs2)c2ccccc2)c1Cl" and stop. > 789

Specify Ratio EC50 for "Cc1nc(-c2ccc(Br)cn2)nc(NC[C@H](NC(=O)CCCN2CCNCC2)c2ccccc2)c1Cl" and stop. 161

Specify Ratio EC50 for "Cc1nc(-c2ccc(Cl)cn2)nc(NC[C@H](NC(=O)CCCN2CCNCC2)c2ccccc2)c1Cl" and stop. 33

Specify Ratio EC50 for "Cc1nc(-c2ccc(Cl)cn2)nc(NC[C@H](NC(=O)CCCc2ccccc2)c2ccccc2)c1Cl" and stop. > 188

* * *

# TARGET: Methionine aminopeptidase 2 (Homo sapiens)
# Sequence (P50579 whole entry): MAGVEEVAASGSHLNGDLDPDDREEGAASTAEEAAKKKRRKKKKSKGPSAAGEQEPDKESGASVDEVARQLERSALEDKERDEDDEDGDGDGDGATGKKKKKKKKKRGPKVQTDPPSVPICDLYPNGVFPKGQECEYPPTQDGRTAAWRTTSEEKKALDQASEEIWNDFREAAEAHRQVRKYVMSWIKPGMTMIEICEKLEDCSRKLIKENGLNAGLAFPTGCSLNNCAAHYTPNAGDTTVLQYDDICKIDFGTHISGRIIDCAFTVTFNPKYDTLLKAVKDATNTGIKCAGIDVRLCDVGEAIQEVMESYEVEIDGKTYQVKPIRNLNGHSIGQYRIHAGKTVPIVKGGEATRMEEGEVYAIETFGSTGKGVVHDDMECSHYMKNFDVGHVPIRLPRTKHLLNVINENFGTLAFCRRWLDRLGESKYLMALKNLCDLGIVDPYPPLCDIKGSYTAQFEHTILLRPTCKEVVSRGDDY
pIC50: −log10 of the molar value.
REPORTED ENDPOINT: pIC50

Please look at "CCCOc1ccc(CCCCN[C@@H](CNc2nc(-c3ccc(Cl)cn3)nc(C)c2Cl)c2ccccc2)cc1" and tell me its recorded pIC50 on Methionine aminopeptidase 2 (Homo sapiens). < 3.52

Please look at "Cc1nc(-c2ccc(Cl)cn2)nc(NC[C@H](NCCCCn2cccc2)c2ccccc2)c1Cl" and tell me its recorded pIC50 on Methionine aminopeptidase 2 (Homo sapiens). < 4.00

Please look at "Cc1nc(-c2ccc(Cl)cn2)nc(NC[C@H](NC(=O)CCCN2CCNCC2)c2ccccc2)c1Cl" and tell me its recorded pIC50 on Methionine aminopeptidase 2 (Homo sapiens). 5.92

Please look at "COc1cccnc1-c1nc(C)c(Cl)c(NC[C@H](NC(=O)CCCN2CCNCC2)c2ccccc2)n1" and tell me its recorded pIC50 on Methionine aminopeptidase 2 (Homo sapiens). < 3.52

Please look at "Cc1nc(-c2ccc(Cl)cn2)nc(NC[C@H](NC(=O)CCc2ccccc2)c2ccccc2)c1Cl" and tell me its recorded pIC50 on Methionine aminopeptidase 2 (Homo sapiens). < 4.52

Please look at "Cc1nc(-c2ccc(Cl)cn2)nc(NC[C@H](NCCCCCCc2ccccc2)c2ccccc2)c1Cl" and tell me its recorded pIC50 on Methionine aminopeptidase 2 (Homo sapiens). < 4.52

Please look at "Cc1nc(-c2ccc(Cl)cn2)nc(NC[C@H](NCCCCc2cccs2)c2ccccc2)c1Cl" and tell me its recorded pIC50 on Methionine aminopeptidase 2 (Homo sapiens). < 3.52

Please look at "Cc1nc(-c2ccc(Cl)cn2)nc(NC[C@H](NC(=O)CCCc2ccccc2)c2ccccc2)c1Cl" and tell me its recorded pIC50 on Methionine aminopeptidase 2 (Homo sapiens). < 4.52

Please look at "Cc1nc(-c2ccccn2)nc(SCCc2ccccc2)c1Cl" and tell me its recorded pIC50 on Methionine aminopeptidase 2 (Homo sapiens). < 4.00

Please look at "Cc1nc(-c2ccc(Cl)cn2)nc(NC[C@H](NCCCCc2ccc(Cl)cc2)c2ccccc2)c1Cl" and tell me its recorded pIC50 on Methionine aminopeptidase 2 (Homo sapiens). < 3.52

Please look at "Cc1nc(-c2ccccn2)nc(NC[C@H](NC(=O)CCN2CCN(CCO)CC2)c2ccccc2)c1Cl" and tell me its recorded pIC50 on Methionine aminopeptidase 2 (Homo sapiens). 3.94

Please look at "Cc1nc(-c2ccc(Cl)cn2)nc(NC[C@H](NCCCCc2ccco2)c2ccccc2)c1Cl" and tell me its recorded pIC50 on Methionine aminopeptidase 2 (Homo sapiens). < 3.52

Please look at Cc1nc(-c2ccc(Cl)cn2)nc(NCC(CCCc2ccccc2)c2ccccc2)c1Cl (stereo not drawn) and tell me its recorded pIC50 on Methionine aminopeptidase 2 (Homo sapiens). < 3.70

Please look at "Cc1nc(-c2ccccn2)nc(NC[C@H](NCCCCN2CCNCC2)c2ccccc2)c1Cl" and tell me its recorded pIC50 on Methionine aminopeptidase 2 (Homo sapiens). 3.73

Please look at "Cc1nc(-c2ccc(Cl)cn2)nc(NC[C@H](NCCCCc2ccc(C#N)cc2)c2ccccc2)c1Cl" and tell me its recorded pIC50 on Methionine aminopeptidase 2 (Homo sapiens). 4.80

Please look at "Cc1nc(-c2ccc(Cl)cn2)nc(NC[C@H](NCCCCc2ccc3ccccc3n2)c2ccccc2)c1Cl" and tell me its recorded pIC50 on Methionine aminopeptidase 2 (Homo sapiens). < 3.52

Please look at "Cc1nc(-c2cc(Cl)ccn2)nc(NC[C@H](NC(=O)CCCN2CCNCC2)c2ccccc2)c1Cl" and tell me its recorded pIC50 on Methionine aminopeptidase 2 (Homo sapiens). < 3.52

Please look at "Cc1nc(-c2ccc(F)cn2)nc(NC[C@H](NC(=O)CCCN2CCNCC2)c2ccccc2)c1Cl" and tell me its recorded pIC50 on Methionine aminopeptidase 2 (Homo sapiens). 5.92
